experiment: qHTS assay for small molecule disruptors of the mitochondrial membrane potential - cell viability (AID 720634); details: HepG2 viability, ATP luminescence (CellTiter-Glo), 1 h; series mostly up to 83.2 µM; also: nearly all actives have a fitted effect of over 20% in size
Records with an inconclusive call do not appear. Calls of active or inactive are those of the source. Calls follow the shape of the full dose curve.
Outcome codes: active, inactive

[
  {
    "COMPOUND": "Cc1cc(Nc2ccccc2C(=O)O)ccc1Cl",
    "ANSWER_LABEL": "inactive"
  },
  {
    "COMPOUND": "CCN(CC)CCOCCOC(=O)C(CC)(CC)c1ccccc1",
    "ANSWER_LABEL": "inactive"
  },
  {
    "COMPOUND": "O=P(O)(O)OC[C@H](O)CO",
    "ANSWER_LABEL": "inactive"
  },
  {
    "COMPOUND": "CCCCC(=O)O[C@H]1CC[C@H]2[C@@H]3CCc4cc(O)ccc4[C@H]3CC[C@]12C",
    "ANSWER_LABEL": "active"
  },
  {
    "COMPOUND": "O=C(CCCCCCCCCCCCC1CCCC1)Nc1ccc(S(=O)(=O)c2ccc(NC(=O)CCCCCCCCCCCCC3CCCC3)cc2)cc1",
    "ANSWER_LABEL": "inactive"
  },
  {
    "COMPOUND": "CCCCCCCCCCCCCCCC(=O)OCCC1CCN(CCCN2c3ccccc3Sc3ccc(S(=O)(=O)N(C)C)cc32)CC1",
    "ANSWER_LABEL": "inactive"
  },
  {
    "COMPOUND": "CC(C)(C)NCC(O)CSc1nc(-c2ccc(C(N)=O)s2)cs1 (configuration not stated)",
    "ANSWER_LABEL": "inactive"
  }
]

====

test: qHTS assay for small molecule agonists of the p53 signaling pathway - cell viability (AID 651633); settings: p53RE-bla HCT-116 viability, ATP luminescence, 16 h; series mostly up to 83.3 µM; also: nearly all actives have a fitted effect of over 30% in size
Records with an inconclusive call do not appear. Activity calls are given as the source filed them. Calls come from the whole dose curve. Positions of bridges follow the written chain, without caps; N, C: chain ends. Non-standard residues stand in square brackets, D forms with d. Residues, ends and D or L forms follow the SMILES beside them. *: point of attachment. X2 = CC[C@H](C)CCCCC(=O)*; Dab = NCC[C@H](N)C(=O)O
Outcome codes: class 1 = active, class 0 = inactive

[
  {
    "COMPOUND": "CN(C)C(=O)CCSC(SCCC(=O)O)c1cccc(/C=C/c2ccc3ccc(Cl)cc3n2)c1 (centres undefined)",
    "ANSWER_LABEL": "class 1"
  },
  {
    "COMPOUND": "C[C@H]1C[C@H]2[C@@H]3CCC4=CC(=O)C=C[C@]4(C)[C@@]3(F)[C@@H](O)C[C@]2(C)[C@@]1(O)C(=O)CCl",
    "ANSWER_LABEL": "class 0"
  },
  {
    "COMPOUND": "CC[C@H]1OC(=O)[C@H](C)[C@@H](O[C@H]2C[C@@](C)(OC)[C@@H](O)[C@H](C)O2)[C@H](C)[C@@H](O[C@@H]2O[C@H](C)C[C@H](N(C)C)[C@H]2O)[C@](C)(O)C[C@@H](C)[C@@H]2N[C@@H](COCCOC)O[C@@H]([C@H]2C)[C@]1(C)O",
    "ANSWER_LABEL": "class 0"
  },
  {
    "COMPOUND": "CC[C@@H](C(=O)[C@@H](C)[C@@H](O)[C@H](C)[C@@H]1O[C@@H]([C@@H](CC)C(=O)O)CC[C@@H]1C)[C@H]1O[C@]2(C=C[C@@H](O)[C@]3(CC[C@@](C)([C@H]4CC[C@](O)(CC)[C@H](C)O4)O3)O2)[C@H](C)C[C@@H]1C",
    "ANSWER_LABEL": "class 0"
  },
  {
    "COMPOUND": "COc1ccc2c(c1)OC(C)(C)C(c1ccccc1)C2c1ccc(OCCN2CCCC2)cc1 (centres undefined)",
    "ANSWER_LABEL": "class 1"
  },
  {
    "COMPOUND": "O=C(O)CC/C=C\\CC[C@@H]1[C@@H](N2CCCCC2)[C@@H](O)C[C@@H]1OCc1ccc(-c2ccccc2)cc1",
    "ANSWER_LABEL": "class 0"
  },
  {
    "COMPOUND": "CN(CC(=O)N1CCOCC1)Cc1c(Cl)cccc1NC(=O)c1ccccc1",
    "ANSWER_LABEL": "class 0"
  },
  {
    "COMPOUND": "CC1(C)C2CC[C@]3(C)[C@H](C(=O)C=C4[C@@H]5C[C@@](C)(C(=O)O)CC[C@]5(C)CC[C@]43C)[C@@]2(C)CC[C@@H]1O[C@H]1O[C@H](C(=O)O)[C@@H](O)[C@H](O)[C@H]1O[C@@H]1O[C@H](C(=O)O)[C@@H](O)[C@H](O)[C@H]1O (some centres undefined)",
    "ANSWER_LABEL": "class 0"
  },
  {
    "COMPOUND": "CC1(C)S[C@@H]2[C@H](NC(=O)C(C(=O)O)c3ccsc3)C(=O)N2[C@H]1C(=O)O (some centres undefined)",
    "ANSWER_LABEL": "class 0"
  },
  {
    "COMPOUND": "CCCCCCCCCCCCCCCC(=O)OC[C@@H](COP(=O)([O-])OCC[N+](C)(C)C)OC(=O)CCCCCCCCCCCCCCC",
    "ANSWER_LABEL": "class 0"
  },
  {
    "COMPOUND": "O=P(O)(O)C(O)(Cc1cnc2ccccn12)P(=O)(O)O",
    "ANSWER_LABEL": "class 0"
  },
  {
    "COMPOUND": "CCOC(=O)COc1ccc2c(C)c(CCN(CC)CC)c(=O)oc2c1",
    "ANSWER_LABEL": "class 0"
  },
  {
    "COMPOUND": "CCSc1ccc2c(c1)N(CCCN1CCN(C)CC1)c1ccccc1S2",
    "ANSWER_LABEL": "class 0"
  },
  {
    "COMPOUND": "Cc1c(O)cc2c(c1C)O[C@](C)(CCC[C@H](C)CCC[C@H](C)CCCC(C)C)CC2",
    "ANSWER_LABEL": "class 0"
  },
  {
    "COMPOUND": "COC(=O)CCC(=O)CN",
    "ANSWER_LABEL": "class 0"
  },
  {
    "COMPOUND": "CC[C@H](C)CCCCC(=O)N[C@@H](CCN)C(=O)N[C@H](C(=O)N[C@@H](CCN)C(=O)N[C@H]1CCNC(=O)[C@@H]([C@H](C)O)NC(=O)[C@H](CCN)NC(=O)[C@H](CCN)NC(=O)[C@H](CC(C)C)NC(=O)[C@@H](CC(C)C)NC(=O)[C@H](CCN)NC1=O)[C@@H](C)O (X2-[Dab]T[Dab][Dab][Dab][dL]L[Dab][Dab][dT]; lactam 4-C)",
    "ANSWER_LABEL": "class 0"
  },
  {
    "COMPOUND": "COc1cc(-c2ccc(-[n+]3nc(-c4ccccc4)nn3-c3ccc([N+](=O)[O-])cc3)c(OC)c2)ccc1-[n+]1nc(-c2ccccc2)nn1-c1ccc([N+](=O)[O-])cc1",
    "ANSWER_LABEL": "class 1"
  },
  {
    "COMPOUND": "COc1cc(Br)c(C[N+]2(CCOCCC3CCC4CC3C4(C)C)CCOCC2)cc1OC (centres undefined)",
    "ANSWER_LABEL": "class 0"
  },
  {
    "COMPOUND": "CCCCOC(=O)C(=O)Nc1cccc(-c2nn[nH]n2)c1",
    "ANSWER_LABEL": "class 0"
  }
]

====

target: Peroxisome proliferator-activated receptor gamma (Homo sapiens) (UniProt P37231); test: qHTS assay to identify small molecule agonists of the peroxisome proliferator-activated receptor gamma (PPARg) signaling pathway (AID 743094); conditions: HEK293H PPARg-UAS-bla, beta-lactamase FRET ratio, 17 h; series mostly up to 57 µM; also: % is scaled to controls: 0 for no effect and ±100 for the full control effect
Sequence (P37231 whole entry, looked up): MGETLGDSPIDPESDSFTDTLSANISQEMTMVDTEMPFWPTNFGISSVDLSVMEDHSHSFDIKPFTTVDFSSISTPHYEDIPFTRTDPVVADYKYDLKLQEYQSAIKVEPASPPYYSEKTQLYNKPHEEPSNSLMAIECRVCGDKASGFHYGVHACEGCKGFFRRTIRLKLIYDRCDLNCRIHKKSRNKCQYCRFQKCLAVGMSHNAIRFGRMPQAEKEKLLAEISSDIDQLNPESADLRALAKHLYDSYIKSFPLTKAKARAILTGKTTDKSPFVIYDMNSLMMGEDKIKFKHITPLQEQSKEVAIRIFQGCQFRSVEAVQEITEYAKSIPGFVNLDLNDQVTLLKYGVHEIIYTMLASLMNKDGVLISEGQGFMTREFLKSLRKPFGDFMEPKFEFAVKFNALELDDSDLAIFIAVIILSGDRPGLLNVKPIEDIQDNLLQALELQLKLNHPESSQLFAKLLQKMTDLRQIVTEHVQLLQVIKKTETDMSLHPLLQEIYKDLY
Inconclusive results are not listed. Activity calls are given as the source filed them. The call rests on the fitted dose curve; in most records, active means well fitted activation curve with a large enough effect in the signal ratio in the repeat runs (not every such curve was filed as active); inconclusive means weak or mixed curves, or effect the other way; inactive means no such curve, though single readings can be large or run the other way; the % refers to the signal ratio.

[
  {
    "MOLECULE": "Cc1ccccc1OCC(O)CNCCOc1ccc(C(N)=O)cc1 (stereo not given)",
    "outcome": "inactive"
  },
  {
    "MOLECULE": "CC(C)C[C@H](NC(=O)[C@@H](Cc1c[nH]c2ccccc12)NC(=O)[C@H](Cc1ccc(O)cc1)NC(=O)[C@H](CO)NC(=O)[C@H](Cc1c[nH]c2ccccc12)NC(=O)[C@H](Cc1cnc[nH]1)NC(=O)[C@@H]1CCC(=O)N1)C(=O)N[C@@H](CCCN=C(N)N)C(=O)N1CCC[C@@H]1C(=O)NCC(N)=O",
    "outcome": "inactive"
  },
  {
    "MOLECULE": "CC[N+](C)(C)Cc1ccccc1Br",
    "outcome": "inactive"
  },
  {
    "MOLECULE": "C=Cc1c(C)c2cc3nc(cc4[nH]c(cc5nc(cc1[nH]2)C(C)=C5CCC(=O)OC)c(CCC(=O)O)c4C)[C@@]1(C)C3=CC=C(C(=O)OC)[C@H]1C(=O)OC",
    "outcome": "inactive"
  },
  {
    "MOLECULE": "OC(CN1CCCCC1)c1cc(-c2ccccc2)on1 (stereo not given)",
    "outcome": "inactive"
  }
]

Just for reference, PubChem BioAssay (Tox21) is where these values come from.
